Values were extracted from patent US10174037B2.

- ASSAY_SYSTEM: Rhesus PDE2A3 (Macaca mulatta, UniProt B3VTJ2)
- Sequence (B3VTJ2 1-941): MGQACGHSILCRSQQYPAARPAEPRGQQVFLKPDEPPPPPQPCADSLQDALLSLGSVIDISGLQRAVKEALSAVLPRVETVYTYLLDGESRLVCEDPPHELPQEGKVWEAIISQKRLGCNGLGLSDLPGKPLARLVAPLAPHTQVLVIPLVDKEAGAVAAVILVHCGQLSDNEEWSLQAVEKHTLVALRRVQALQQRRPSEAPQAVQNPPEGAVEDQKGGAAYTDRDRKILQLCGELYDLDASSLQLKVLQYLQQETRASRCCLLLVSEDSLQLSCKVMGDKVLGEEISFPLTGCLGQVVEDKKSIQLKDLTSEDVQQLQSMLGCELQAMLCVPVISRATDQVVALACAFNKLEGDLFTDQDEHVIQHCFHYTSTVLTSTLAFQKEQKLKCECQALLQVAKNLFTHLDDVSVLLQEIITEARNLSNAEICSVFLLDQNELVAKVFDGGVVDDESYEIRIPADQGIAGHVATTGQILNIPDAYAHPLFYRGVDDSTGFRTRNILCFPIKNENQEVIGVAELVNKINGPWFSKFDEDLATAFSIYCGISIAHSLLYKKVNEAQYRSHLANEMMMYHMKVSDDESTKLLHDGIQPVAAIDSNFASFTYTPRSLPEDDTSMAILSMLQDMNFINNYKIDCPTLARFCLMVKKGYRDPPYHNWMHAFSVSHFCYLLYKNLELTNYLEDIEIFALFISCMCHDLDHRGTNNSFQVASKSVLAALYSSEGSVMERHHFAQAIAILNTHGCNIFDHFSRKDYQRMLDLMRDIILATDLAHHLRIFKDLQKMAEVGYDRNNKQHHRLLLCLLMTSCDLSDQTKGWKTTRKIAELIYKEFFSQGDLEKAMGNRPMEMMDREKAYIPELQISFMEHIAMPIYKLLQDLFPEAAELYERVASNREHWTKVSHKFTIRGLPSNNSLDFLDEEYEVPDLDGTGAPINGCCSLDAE
- TEST_PROTOCOL: PDE2 fluorescence polarization (IMAP FP) assay, rhesus PDE2A3
- Type: biochemical, rhesus macaque
- TEST_CONDITIONS: Lab B, read-out: Rhesus PDE2 Ki (nM) Lab B
VALUE_KIND: Ki (nM)

>>> print(df.to_string())
                                   compound  unit_abbrev  numeric_result
0  N#CCc1nn(C(c2ccc(C(F)(F)F)cc2)C2CC2)c2nc(O)[nH]c(=O)c12 (single isomer, unassigned) [Example 297]           nM             207
1  CC(c1ccc(OC(F)(F)F)cc1)n1nc(CF)c2c(=O)[nH]c(N(C)C)nc21 (single isomer, unassigned) [Example 164]           nM               2
2  O=c1[nH]c(O)nc2c1c(CC(F)(F)F)nn2C(c1ccc(C(F)(F)F)c(F)c1)C1CC1 (single isomer, unassigned) [Example 238]           nM             7.1
3  CC(c1ccc(C(F)(F)F)cc1)n1nc(C(F)(F)C(F)(F)F)c2c(=O)[nH]c(O)nc21 (single isomer, unassigned) [Example 267]           nM             448
4  CCC(c1ccc(C(C)(F)F)c(F)c1)n1nc(CO)c2c(=O)[nH]c(N(C)C)nc21 (single isomer, unassigned) [Example 112]           nM             1.1

1 = CN(C)c1nc2c(c(CO)nn2C(c2ccc(C(C)(F)F)cc2)C2CC2)c(=O)[nH]1 (single isomer, unassigned) [Example 141]
2 = CC(C)C(c1ccc(C(C)(F)F)cc1F)n1nc(CO)c2c(=O)[nH]c(N(C)C)nc21 (single isomer, unassigned) [Example 119]
[in] For the pair 1 and 2 , which entry has the numerically smaller recorded Ki? Which one? Tell me its label.
[out] 2
